The reported numbers originate from paper PMC6750642.

Experiment Notes: Image-based single particle analysis (SPA) solubility measurement of amorphous and crystalline samples
Type: physicochemical
Test Context: Milli-Q ultrapure water, type 1
Measurement Type: DS (degree of supersaturation, amorphous vs crystalline solubility), SPA method

Here's what some known entries look like.
Cc1ccc(-c2cc(C(F)(F)F)nn2-c2ccc(S(N)(=O)=O)cc2)cc1 :: 18.9
OCCN(CCO)c1nc(N2CCCCC2)c2nc(N(CCO)CCO)nc(N3CCCCC3)c2n1 :: 15.3

1 = COc1ccc2c(c1)c(CC(=O)O)c(C)n2C(=O)c1ccc(Cl)cc1
2 = COC1=CC(=O)C[C@@H](C)[C@]12Oc1c(Cl)c(OC)cc(OC)c1C2=O
Consider entries 1 and 2 . Which has the numerically lower DS (degree of supersaturation, amorphous vs crystalline solubility), SPA method? In your reply, give the label of the chosen option.
1
(1: 20.4, 2: 29.8)
